pIC50: −log10 of the molar value.
Reported values: pIC50 for cathepsin D (from human liver) (Homo sapiens, UniProt P07339), one per item.
Outcome measure: pIC50

CN=[S@@]1(=O)C[C@@](C)(c2cc(-c3cc(-c4ncc(Cl)cn4)no3)ccc2F)N=C(N)C1(C)C [Example 6, 2,2,2-trifluoroacetate]	4.42
CN=[S@@]1(=O)C[C@@](C)(c2cc(-c3cc(-c4cnc(OCC(F)F)cn4)no3)ccc2F)N=C(N)C1(C)C [Example 5, 2,2,2-trifluoroacetate]	4.54
CN=[S@@]1(=O)C[C@@](C)(c2cc(-c3cc(-c4cnc(OC)cn4)no3)ccc2F)N=C(N)C1(C)C [Example 7, 2,2,2-trifluoroacetate]	4.43

Provenance of the data: patent US10047081B2
